Origin of measurements: patent US20190292189A1

- target_desc: P450 1A2 (Homo sapiens, UniProt P05177)
- Sequence (P05177 whole entry): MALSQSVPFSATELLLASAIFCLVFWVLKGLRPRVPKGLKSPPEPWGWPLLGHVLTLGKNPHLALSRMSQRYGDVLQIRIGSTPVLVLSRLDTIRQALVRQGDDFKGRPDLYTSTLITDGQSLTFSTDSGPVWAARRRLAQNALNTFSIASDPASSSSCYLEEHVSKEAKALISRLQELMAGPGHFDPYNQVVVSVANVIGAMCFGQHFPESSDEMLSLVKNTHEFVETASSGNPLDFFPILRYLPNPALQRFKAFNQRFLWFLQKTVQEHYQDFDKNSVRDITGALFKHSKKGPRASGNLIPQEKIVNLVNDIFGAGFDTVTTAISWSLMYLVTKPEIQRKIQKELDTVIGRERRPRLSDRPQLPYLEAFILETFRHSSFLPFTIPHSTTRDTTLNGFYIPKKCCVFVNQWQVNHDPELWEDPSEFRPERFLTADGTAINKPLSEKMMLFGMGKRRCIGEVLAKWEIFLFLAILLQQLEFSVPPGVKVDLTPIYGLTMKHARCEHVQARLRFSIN
Provide the reported P450 % inh. at 10 μM 1A2 of each item.

-- ask Consider the compound shown here: Cc1c[nH]c2ncnc(-c3ccc(NC(=O)N(CCO)c4cccc(Cl)c4)cc3)c12 [Compound 18g] What is its recorded P450 % inh. at 10 μM 1A2?
-- reply −19/31/2/42%

-- ask Would you mind doing COc1cccc(N(CCO)C(=O)Nc2ccc(-c3ncnc4[nH]cc(C)c34)cc2)c1 [Compound 18m] as well?
-- reply 3/17/3/44%

-- ask Would you mind doing Cc1c[nH]c2ncnc(-c3ccc(NC(=O)N(CCO)c4ccccc4)cc3)c12 [Compound 18b] as well?
-- reply −16/14/5/13%

-- ask Would you mind doing Cc1c[nH]c2ncnc(-c3ccc(NC(=O)N(CCO)c4ccccc4Cl)cc3)c12 [Compound 18f] as well?
-- reply −4/39/1/37%
